Tested on: Yap1 mRNA
Test: Antisense inhibition of human Yap1 in A-431 cells by cEt gapmers, single dose (Example 3, RTS36584)
Assay type: cell-based
Settings: Table 8; A-431 cells, 5,000 cells per well, free uptake, 2,000 nM, approximately 48 hours; RTS36584; normalized to RIBOGREEN; Yap1 mRNA relative to untreated control cells
Strand notation (5' to 3'): a small letter for the sugar, then the base; units joined by * are phosphorothioate-linked, units joined directly phosphodiester-linked; [ ] holds rarer units or linkages, { } end groups; capitals alone tell only the bases. k = constrained ethyl (cEt); [5mC] = 5-methylcytosine; d = 2'-deoxy (DNA)
Readout label: YAP1 (% UTC)
State just the number; it will be interpreted in % UTC.

>  <Substance>
958389 (antisense k[5mC]*kG*kG*dA*dG*dG*d[5mC]*dG*d[5mC]*dG*d[5mC]*dG*d[5mC]*kA*kT*kT) [Compound 958389]

>  <Assay target>
Yap1 mRNA

>  <YAP1 (% UTC)>
126

$$$$
>  <Substance>
958416 (antisense kG*k[5mC]*kT*dG*dT*dG*dT*dA*dG*dG*d[5mC]*dT*dG*kA*k[5mC]*kT) [Compound 958416]

>  <Assay target>
Yap1 mRNA

>  <YAP1 (% UTC)>
36

$$$$
>  <Substance>
958401 (antisense kA*kG*kT*dT*dA*dT*dT*d[5mC]*dA*dG*d[5mC]*dA*dG*k[5mC]*kT*kT) [Compound 958401]

>  <Assay target>
Yap1 mRNA

>  <YAP1 (% UTC)>
19

$$$$
>  <Substance>
958360 (antisense kT*k[5mC]*kG*dA*dA*d[5mC]*dA*dT*dG*d[5mC]*dT*dG*dT*kG*kG*kA) [Compound 958360]

>  <Assay target>
Yap1 mRNA

>  <YAP1 (% UTC)>
12

$$$$
>  <Substance>
958390 (antisense kG*k[5mC]*kG*dA*dA*dG*dG*dT*dG*d[5mC]*dG*dG*dA*kG*k[5mC]*kG) [Compound 958390]

>  <Assay target>
Yap1 mRNA

>  <YAP1 (% UTC)>
145

$$$$
>  <Substance>
958379 (antisense kG*k[5mC]*kG*d[5mC]*d[5mC]*d[5mC]*dG*d[5mC]*d[5mC]*d[5mC]*dG*d[5mC]*dA*k[5mC]*k[5mC]*kG) [Compound 958379]

>  <Assay target>
Yap1 mRNA

>  <YAP1 (% UTC)>
124

$$$$
>  <Substance>
958408 (antisense k[5mC]*kT*kA*dT*dA*dT*dA*dT*dG*dG*dT*dA*dG*kT*k[5mC]*kT) [Compound 958408]

>  <Assay target>
Yap1 mRNA

>  <YAP1 (% UTC)>
20

$$$$
>  <Substance>
958386 (antisense kG*kG*k[5mC]*dG*d[5mC]*dG*d[5mC]*dG*d[5mC]*dA*dT*dT*dG*kT*kG*k[5mC]) [Compound 958386]

>  <Assay target>
Yap1 mRNA

>  <YAP1 (% UTC)>
111

$$$$
>  <Substance>
958398 (antisense kG*k[5mC]*kA*dG*dG*d[5mC]*dT*dA*dT*dT*dA*dA*dG*k[5mC]*kT*kG) [Compound 958398]

>  <Assay target>
Yap1 mRNA

>  <YAP1 (% UTC)>
76

$$$$
>  <Substance>
958365 (antisense kG*k[5mC]*k[5mC]*dA*dT*dG*dT*dT*dG*dT*dT*dG*dT*k[5mC]*kT*kG) [Compound 958365]

>  <Assay target>
Yap1 mRNA

>  <YAP1 (% UTC)>
34

$$$$

Here's the next entry for you.
Give reported YAP1 (% UTC) value for 958406 (antisense kT*kT*kT*d[5mC]*dA*dG*dT*dT*dA*dT*d[5mC]*dG*dG*k[5mC]*k[5mC]*k[5mC]) [Compound 958406]
29
